experimentalDetails: Clearance in cynomolgus monkey at 10 mg/kg, iv
Format: ADME, organism-based, Macaca fascicularis
runParameters: in vivo

{"columns": ["structure", "clearance (mL/min/kg)"],
 "data": [
  ["CC(C)(N)[C@H](N[C@H]1CCc2cc(C#Cc3ccc(Cn4ccnc4CO)cc3)ccc21)C(=O)NO", 4.39]
]}

###

experimentalDetails: Volume of distribution at steady state in cynomolgus monkey at 10 mg/kg, iv
Assay type: ADME, organism-based, Macaca fascicularis
runParameters: in vivo, read-out: Vdss

{"columns": ["structure", "Vd (L/kg)"],
 "data": [
  ["CC(C)(N)[C@H](N[C@H]1CCc2cc(C#Cc3ccc(Cn4ccnc4CO)cc3)ccc21)C(=O)NO", 0.38]
]}

###

Let's look at some compounds and their measured MIC.
System: Escherichia coli
experimentalDetails: Antibacterial activity against Escherichia coli isolate 35 ATCC 25922
Assay type: functional

{"columns": ["compound", "targetSystem", "MIC (µg/mL)"],
 "data": [
  ["CC(C)(O)[C@H](N[C@H]1CCc2cc(C#Cc3ccc(CN4CCOCC4)cc3)ccc21)C(=O)NO", "Escherichia coli", 0.25],
  ["C[C@@H](O)[C@H](NC1CN(C)Cc2cc(C#Cc3ccccc3)ccc21)C(=O)NO (stereo partly drawn)", "Escherichia coli", 2],
  ["C[C@@H](O)[C@H](NC1CCCCc2cc(C#Cc3ccccc3)ccc21)C(=O)NO (stereo partly drawn)", "Escherichia coli", 16],
  ["C[C@@H](O)[C@H](NC1CCOc2cc(C#Cc3ccc(CN4CCOCC4)cc3)ccc21)C(=O)NO (stereo partly drawn)", "Escherichia coli", 2],
  ["COC1CCN(Cc2ccc(C#Cc3ccc4c(c3)CC[C@@H]4N[C@H](C(=O)NO)[C@@H](C)O)cc2)CC1", "Escherichia coli", 0.5],
  ["CC(C)(N)[C@H](NC1COCc2cc(C#Cc3ccc(Cn4ccnc4CO)cc3)ccc21)C(=O)NO (stereo partly drawn)", "Escherichia coli", 4],
  ["Cc1nccn1Cc1ccc(C#Cc2ccc3c(c2)CC[C@@H]3N[C@H](C(=O)NO)[C@@H](C)O)cc1", "Escherichia coli", 0.25],
  ["C[C@@H](O)[C@H](NC1CCN(C)c2cc(C#Cc3ccccc3)ccc21)C(=O)NO (stereo partly drawn)", "Escherichia coli", 8]
]}

###

experimentalDetails: Half life in cynomolgus monkey at 10 mg/kg, iv
Format: ADME, organism-based, Macaca fascicularis
runParameters: in vivo
testReadout: half-life (h)

{"columns": ["structure", "testReadout", "displayUnit", "reportedMeasurement"],
 "data": [
  ["CC(C)(N)[C@H](N[C@H]1CCc2cc(C#Cc3ccc(Cn4ccnc4CO)cc3)ccc21)C(=O)NO", "half-life", "h", 6.54]
]}

###

experimentalDetails: Clearance in mouse at 10 mg/kg, sc
Assay type: ADME, organism-based
runParameters: in vivo
testReadout: CL/F (mL/min/kg)

{"columns": ["structure", "testReadout", "reportedMeasurement"],
 "data": [
  ["CC(C)(N)[C@H](N[C@H]1CCc2cc(C#Cc3ccc(Cn4ccnc4CO)cc3)ccc21)C(=O)NO", "CL/F", 24.4]
]}

###

List of pIC50 values.
targetSystem: UDP-3-O-acyl-N-acetylglucosamine deacetylase (Escherichia coli K-12, UniProt P0A725)
Sequence (P0A725 whole entry): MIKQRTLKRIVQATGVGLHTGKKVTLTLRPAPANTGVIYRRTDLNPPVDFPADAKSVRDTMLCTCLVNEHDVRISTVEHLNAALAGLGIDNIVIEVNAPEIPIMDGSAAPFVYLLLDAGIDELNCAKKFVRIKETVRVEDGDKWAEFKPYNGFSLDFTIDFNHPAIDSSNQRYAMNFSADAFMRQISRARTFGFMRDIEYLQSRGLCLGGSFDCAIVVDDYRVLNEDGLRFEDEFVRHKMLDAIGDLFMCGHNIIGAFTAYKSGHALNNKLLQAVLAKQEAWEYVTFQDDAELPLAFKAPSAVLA
experimentalDetails: Inhibition of LpxC in Escherichia coli isolate 35 ATCC 25922
pIC50: −log10 of the molar value.

{"columns": ["compound", "pIC50"],
 "data": [
  ["CC(C)(N)[C@H](NC1COCc2cc(C#Cc3ccc(CN4CCOCC4)cc3)ccc21)C(=O)NO (some centres not stated)", 8.30],
  ["C[C@@H](O)[C@H](N[C@H]1CCc2cc(C#Cc3ccc(CN4CCN(C)CC4)cc3)ccc21)C(=O)NO", 7.28],
  ["C[C@@H](O)[C@H](NC1CCOc2cc(C#Cc3ccc(CN4CCOCC4)cc3)ccc21)C(=O)NO (some centres not stated)", 9.00],
  ["CC(C)(N)[C@H](NC1COCc2cc(C#Cc3ccc(Cn4ccnc4CO)cc3)ccc21)C(=O)NO (some centres not stated)", 8.52],
  ["CC(C)(N)[C@H](N[C@H]1CCc2cc(C#Cc3ccc(CN4CCOCC4)cc3)ccc21)C(=O)NO", 8.70],
  ["CC(C)(N)[C@H](N[C@H]1CCc2cc(C#Cc3ccc(Cn4ccnc4CO)cc3)ccc21)C(=O)NO", 8.40],
  ["C[C@@H](O)[C@H](N[C@H]1CCc2cc(C#Cc3ccc(CN4CCN(CCO)CC4)cc3)ccc21)C(=O)NO", 7.70],
  ["C[C@@H](O)[C@H](NC1CCN(C)c2cc(C#Cc3ccc(CN4CCOCC4)cc3)ccc21)C(=O)NO (some centres not stated)", 8.70],
  ["C[C@@H](O)[C@H](NC1COCc2cc(C#Cc3ccc(CN4CCOCC4)cc3)ccc21)C(=O)NO (some centres not stated)", 9.00],
  ["C[C@@H](O)[C@H](NC1CCCc2cc(C#Cc3ccc(CN4CCOCC4)cc3)ccc21)C(=O)NO (some centres not stated)", 9.52],
  ["C[C@@H](O)[C@H](N[C@H]1CCc2cc(C#Cc3ccc(CN4CC(O)C4)cc3)ccc21)C(=O)NO", 6.90],
  ["C[C@@H](O)[C@H](NC1CCN(C)c2cc(C#Cc3ccccc3)ccc21)C(=O)NO (some centres not stated)", 8.70],
  ["C[C@@H](O)[C@H](NC1CCc2cc(C#Cc3ccc(CN4CCOCC4)cc3)ccc21)C(=O)NO (some centres not stated)", 8.70],
  ["C[C@@H](O)[C@H](N[C@H]1CCc2cc(C#Cc3ccc(Cn4ccnc4CO)cc3)ccc21)C(=O)NO", 8.22],
  ["C[C@@H](O)[C@H](NCc1ccc(C#Cc2ccccc2)cc1)C(=O)NO", 7.17],
  ["CC(C)(O)[C@H](N[C@H]1CCc2cc(C#Cc3ccc(CN4CCOCC4)cc3)ccc21)C(=O)NO", 9.00],
  ["C[C@@H](O)[C@H](NC1CCOc2cc(C#Cc3ccccc3)ccc21)C(=O)NO (some centres not stated)", 7.96]
]}
